experimental.target: p-Akt3 in WM115 cells (Homo sapiens)
Construct: SureFire assays to detect cellular p-Akt1, p-Akt2 and p-Akt3 levels in WM115 cells (Akt2/3) and LNCaP cells (Akt1); endogenous in cells; host or cells: WM115 (ECACC 91061232), insulin-stimulated
Sequence (Q9Y243 whole entry): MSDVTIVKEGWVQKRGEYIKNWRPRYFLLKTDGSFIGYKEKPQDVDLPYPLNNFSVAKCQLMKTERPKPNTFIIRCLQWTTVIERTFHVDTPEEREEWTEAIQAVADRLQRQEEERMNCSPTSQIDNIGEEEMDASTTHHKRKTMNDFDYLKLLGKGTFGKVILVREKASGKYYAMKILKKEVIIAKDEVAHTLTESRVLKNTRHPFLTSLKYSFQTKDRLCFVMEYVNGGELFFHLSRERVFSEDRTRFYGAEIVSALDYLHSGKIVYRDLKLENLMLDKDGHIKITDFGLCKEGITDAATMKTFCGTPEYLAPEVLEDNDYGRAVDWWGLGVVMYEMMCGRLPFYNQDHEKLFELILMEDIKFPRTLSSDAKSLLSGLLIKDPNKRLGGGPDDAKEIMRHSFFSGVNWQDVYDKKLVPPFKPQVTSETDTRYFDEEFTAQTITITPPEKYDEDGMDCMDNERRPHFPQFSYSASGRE
test.protocol: Phospho-Akt cellular SureFire assay, p-Akt3 in WM115 cells
Format: cell-based
conditions: insulin stimulated, read-out: Biological Assay 2 IC50 (nM) Akt3 WM115
quantity.kind: IC50 (nM)

[
  {
    "smiles.notation": "CN(C(=O)C1CCC1)[C@H]1CC[C@H](CC(=O)Nc2cnc(-c3ccc(C(C)(C)N)cc3)c(-c3ccccc3)c2)CC1",
    "experimental.target": "p-Akt3 in WM115 cells (Homo sapiens)",
    "IC50 / nM": 240
  },
  {
    "smiles.notation": "NC1(c2ccc(-c3ncc(NC(=O)C[C@H]4CC[C@H](N5CCCC5=O)CC4)cc3-c3ccsc3)cc2)CCC1",
    "experimental.target": "p-Akt3 in WM115 cells (Homo sapiens)",
    "IC50 / nM": 110
  }
]

[I] CN(C(=O)C1CC1)[C@H]1CC[C@H](CC(=O)Nc2cnc(-c3ccc(C(C)(C)N)cc3)c(-c3ccsc3)c2)CC1
[II] CCOC(=O)N(C)[C@H]1CC[C@H](CC(=O)Nc2cc(-c3ccsc3)c(-c3ccc([C@]4(N)C[C@](C)(O)C4)cc3)cn2)CC1
Query :: Determine, for I and II , which has the greater value of IC50. API: response body contains the label of the selected item.
Result :: I
(I: 380 nM, II: 180 nM)

[P] CC(=O)N(C)[C@H]1CC[C@H](CC(=O)Nc2cc(-c3ccccc3)c(-c3ccc(C4(N)CC4)c(F)c3)nn2)CC1
[Q] CC(C)C(=O)N(C)[C@H]1CC[C@H](CC(=O)Nc2cc(-c3ccccc3)c(-c3ccc(C(C)(C)N)cc3)nn2)CC1
Query :: Determine, for P and Q , which has the greater value of IC50. API: response body contains the label of the selected item.
Result :: P
